Parameter Emax: see the listing below.
- MEASURED_ON: DDB1- and CUL4-associated factor 16/Bromodomain-containing protein 4 (Homo sapiens, UniProt O60885+Q9NXF7)
- Sequence (Q9NXF7 whole entry, looked up, other chains not shown): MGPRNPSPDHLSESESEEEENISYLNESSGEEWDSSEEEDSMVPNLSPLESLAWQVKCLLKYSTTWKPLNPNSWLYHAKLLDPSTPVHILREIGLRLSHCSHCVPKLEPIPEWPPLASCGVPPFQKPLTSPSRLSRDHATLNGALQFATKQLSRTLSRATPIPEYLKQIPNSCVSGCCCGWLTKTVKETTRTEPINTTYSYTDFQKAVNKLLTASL
- ASSAY_METHOD_TEXT: Molecular glue degradation (MGD) activity at DCAF16/BRD4 in human K562 cells assessed as maximum degradation incubated for 16 hrs by fluorescent stability reporter assay relative to control
- Assay type: cell-based

>  <SMILES_INPUT>
Cc1sc2c(c1C)C(c1ccc(C#CC(N)=O)cc1)=N[C@@H](CC(=O)OC(C)(C)C)c1nncn1-2

>  <Emax (%)>
69

$$$$
>  <SMILES_INPUT>
Cc1sc2c(c1C)C(c1ccc(C#CCO)cc1)=N[C@@H](CC(=O)OC(C)(C)C)c1nncn1-2

>  <Emax (%)>
10

$$$$
>  <SMILES_INPUT>
Cc1sc2c(c1C)C(c1ccc(C#CC=O)cc1)=N[C@@H](CC(=O)OC(C)(C)C)c1nncn1-2

>  <Emax (%)>
69

$$$$
>  <SMILES_INPUT>
Cc1sc2c(c1C)C(c1ccc(/C=C/C=O)cc1)=N[C@@H](CC(=O)OC(C)(C)C)c1nncn1-2

>  <Emax (%)>
75

$$$$

====

- ASSAY_METHOD_TEXT: Glutathione reactivity in PBS buffer assessed as half lives incubated for 1 hrs by LC-MS/MS analysis
- Assay type: physicochemical
Parameter half-life: see the listing below.
PROPERTY_MEASURED: half-life (h)

>  <SMILES_INPUT>
C=CS(=O)(=O)Nc1ccc(C2=N[C@@H](CC(=O)OC(C)(C)C)c3nncn3-c3sc(C)c(C)c32)cc1

>  <VALUE_QUALIFIER>
>

>  <MEASURED>
12.5

$$$$
>  <SMILES_INPUT>
Cc1sc2c(c1C)C(c1ccc(/C=C/C=O)cc1)=N[C@@H](CC(=O)OC(C)(C)C)c1nncn1-2

>  <VALUE_QUALIFIER>
=

>  <MEASURED>
6.92

$$$$
>  <SMILES_INPUT>
Cc1sc2c(c1C)C(c1ccc(/C=C/C(N)=O)cc1)=N[C@@H](CC(=O)OC(C)(C)C)c1nncn1-2

>  <VALUE_QUALIFIER>
>

>  <MEASURED>
12.5

$$$$
>  <SMILES_INPUT>
Cc1sc2c(c1C)C(c1ccc(C#CC=O)cc1)=N[C@@H](CC(=O)OC(C)(C)C)c1nncn1-2

>  <VALUE_QUALIFIER>
=

>  <MEASURED>
8.83

$$$$
>  <SMILES_INPUT>
Cc1sc2c(c1C)C(c1ccc(NC(=O)CCl)cc1)=N[C@@H](CC(=O)OC(C)(C)C)c1nncn1-2

>  <VALUE_QUALIFIER>
=

>  <MEASURED>
8.85

$$$$
>  <SMILES_INPUT>
Cc1sc2c(c1C)C(c1ccc(C#CC(N)=O)cc1)=N[C@@H](CC(=O)OC(C)(C)C)c1nncn1-2

>  <VALUE_QUALIFIER>
=

>  <MEASURED>
6.33

$$$$

====

- MEASURED_ON: DDB1- and CUL4-associated factor 16/Bromodomain-containing protein 4 (Homo sapiens, UniProt O60885+Q9NXF7)
- ASSAY_METHOD_TEXT: Molecular glue degradation (MGD) activity at DCAF16/BRD4 in human K562 cells incubated for 16 hrs
- Type: cell-based
Parameter DC50: see the listing below.

>  <SMILES_INPUT>
Cc1sc2c(c1C)C(c1ccc(C#CC=O)cc1)=N[C@@H](CC(=O)OC(C)(C)C)c1nncn1-2

>  <VALUE_QUALIFIER>
=

>  <DC50, nM>
703

$$$$
>  <SMILES_INPUT>
Cc1sc2c(c1C)C(c1ccc(C#CC(N)=O)cc1)=N[C@@H](CC(=O)OC(C)(C)C)c1nncn1-2

>  <VALUE_QUALIFIER>
=

>  <DC50, nM>
51

$$$$
>  <SMILES_INPUT>
C=CS(=O)(=O)Nc1ccc(C2=N[C@@H](CC(=O)OC(C)(C)C)c3nncn3-c3sc(C)c(C)c32)cc1

>  <VALUE_QUALIFIER>
=

>  <DC50, nM>
1

$$$$
>  <SMILES_INPUT>
Cc1sc2c(c1C)C(c1ccc(C#CCO)cc1)=N[C@@H](CC(=O)OC(C)(C)C)c1nncn1-2

>  <VALUE_QUALIFIER>
>

>  <DC50, nM>
10000

$$$$
>  <SMILES_INPUT>
Cc1sc2c(c1C)C(c1ccc(/C=C/C=O)cc1)=N[C@@H](CC(=O)OC(C)(C)C)c1nncn1-2

>  <VALUE_QUALIFIER>
=

>  <DC50, nM>
64

$$$$
>  <SMILES_INPUT>
Cc1sc2c(c1C)C(c1ccc(NC(=O)CCl)cc1)=N[C@@H](CC(=O)OC(C)(C)C)c1nncn1-2

>  <VALUE_QUALIFIER>
=

>  <DC50, nM>
8

$$$$
